test system: GH3-TRE-Luc cell line; settings: read-out: AC50 (uM) modified / 1000; Tox21_110001=Tox21_112327; viability, 1 nM T3 present, 24 h
Parameter: CC50 (µM)

>>> reported("CCCCCCCCCCCCCC[N+](C)(C)C [Tetradonium bromide]")
5.04

----------
assay: in vitro; conditions: rat, gh3-tre-luc cells, AC50 (uM) modified / 1000, Tox21_110001=Tox21_200633; viability, 1 nM T3 present, 24 h
Parameter: CC50 at 24 h

>>> reported("CCC(C)Br (stereo not shown)")
"> 100 µM"

----------
// reported AC50 per item
assay: Global cytotoxicity: eighteen Tox21 cell viability assays; type: cell-based; details: median over 18 Tox21 cell viability assays; inactive set to 1,000; read-out: Global cytotoxicity AC50 median
Parameter: AC50 (µM)

>>> reported("c1cc(N(CC2CO2)CC2CO2)ccc1Cc1ccc(N(CC2CO2)CC2CO2)cc1 (stereo not drawn)")
45.3
>>> reported("CCCc1c(OCCCCc2nnn[nH]2)ccc(C(C)=O)c1O [Tomelukast, reference compound]")
14.4
>>> reported("Cc1ccc2c(Cl)cc(Cl)c(O)c2n1 [5,7-Dichloro-8-hydroxy-2-methylquinoline]")
13.6

----------
test: in vitro; conditions: rat, gh3-tre-luc cells, AC50 (uM) modified / 1000, Tox21_110001=Tox21_201502; viability, 1 nM T3 present, 24 h
Parameter: CC50 at 24 h

>>> reported("CC(=O)C=Cc1ccccc1")
"> 90 µM"

----------
assay: in vitro; conditions: rat, gh3-tre-luc cells, AC50 (uM) modified / 1000
Counter-ions that a name gives are not always drawn.
Overview of recorded CC50 at 24 h for various molecules
Parameter: CC50 at 24 h

>>> reported("CCCCN1C(=O)c2ccccc2C1=O")
"> 90 µM"
>>> reported("CC1=CC(=O)CC(C)(C)C1=O")
"> 90 µM"
>>> reported("O=C(CBr)OCc1ccccc1 [Benzyl bromoacetate]")
"> 90 µM"
>>> reported("COc1cc2c(cc1OC)-c1c/c(=N\\c3c(C)cc(C)cc3C)n(C)c(=O)n1CC2 [Trequinsin hydrochloride]")
"20.3 µM"
>>> reported("CCCc1ccc(O)c(OC)c1")
"> 90 µM"
>>> reported("IC(I)I [Iodoform]")
"> 90 µM"
>>> reported("CN(C(=O)CO)c1c(I)c(C(=O)NCC(O)CO)c(I)c(C(=O)NCC(O)CO)c1I (stereo not drawn)")
"> 50 µM"
>>> reported("O=C1CCCC=CCCCCCCCCCC1")
"74.1 µM"
>>> reported("C#C[C@]1(O)CC[C@H]2[C@@H]3CCc4cc(O)ccc4[C@H]3CC[C@@]21C")
"> 90 µM"

----------
system: GH3-TRE-Luc cell line; settings: read-out: AC50 (uM) modified / 1000; Tox21_110001=Tox21_302696; viability, 1 nM T3 present, 24 h
Parameter: CC50

>>> reported("CCCCCCCCCCCC(=O)O [Triethanolamine Laurate]")
"85.4 µM"

----------
test: in vitro; settings: rat, gh3-tre-luc cells, AC50 (uM) modified / 1000
Structures can show the parent of a compound that is named as a salt.
Measured CC50 at 24 h, listed per entry for reference.
Parameter: CC50 at 24 h

>>> reported("CC#CCC(C)[C@H](O)/C=C/[C@@H]1[C@H]2C/C(=C/CCCC(=O)O)C[C@H]2C[C@H]1O (some centres unmarked) [Iloprost]")
"> 50 µM"
>>> reported("Cc1ccc(N)nc1 [5-Methylpyridin-2-amine]")
"> 90 µM"
>>> reported("Cc1ccc(C(N)=O)cc1N [3-Amino-4-methylbenzamide]")
"> 90 µM"
>>> reported("CN/C(=N\\[N+](=O)[O-])NCc1cnc(Cl)s1 [Clothianidin]")
"> 90 µM"
>>> reported("C1CC(COCC2CO2)CCC1COCC1CO1 (centres unmarked)")
"59.2 µM"
>>> reported("CCCCC(CC)COCCO (centres unmarked) [2-(2-Ethylhexyloxy)ethanol]")
"> 90 µM"
>>> reported("CCOC(=O)[C@H](CCc1ccccc1)N[C@@H](C)C(=O)N1Cc2ccccc2C[C@H]1C(=O)O [Quinapril hydrochloride]")
"> 90 µM"
>>> reported("C[C@@H](O)[C@H]1C(=O)N2C(C(=O)O)=C(S[C@@H]3CN[C@H](CNS(N)(=O)=O)C3)[C@H](C)[C@H]12 [Doripenem]")
"> 50 µM"
>>> reported("O=[N+]([O-])c1ccc(/C=N\\O)o1 [Nifuroxime]")
"> 50 µM"
>>> reported("NCCNCCNCCNCCN [Tetraethylenepentamine]")
"> 90 µM"
>>> reported("Cl[C@H]1[C@H](Cl)[C@@H](Cl)[C@@H](Cl)[C@H](Cl)[C@H]1Cl [1,2,3,4,5,6-Hexachlorocyclohexane]")
"45.8 µM"
>>> reported("C[C@]12CCC(=O)C=C1CC[C@H]1[C@@H]3CC[C@](O)(C(=O)CO)[C@@]3(C)C[C@H](O)[C@@]12F [Fludrocortisone]")
"> 50 µM"
>>> reported("C=CCSSCC=C [Diallyl disulfide]")
"> 90 µM"
>>> reported("c1ccc(B(c2ccccc2)c2ccccc2)cc1 [Triphenylborane]")
"> 90 µM"
>>> reported("O=C(O)c1cc(-c2ccccc2)nc2ccccc12 [Cinchophen]")
"> 50 µM"
>>> reported("O=C(CCN1CC1)OCC(CO)(COC(=O)CCN1CC1)COC(=O)CCN1CC1")
"> 90 µM"
>>> reported("COCC(C)O (centres unmarked) [1-Methoxy-2-propanol]")
"> 90 µM"
>>> reported("CSCCCN=C=S [3-(Methylthio)propyl isothiocyanate]")
"> 90 µM"
>>> reported("CC(=O)NCCCS(=O)(=O)O [Acamprosate calcium]")
"> 40 µM"
>>> reported("CC[N+](CC)(CCNC(=O)C(=O)NCC[N+](CC)(CC)Cc1ccccc1Cl)Cc1ccccc1Cl [Ambenonium chloride]")
"> 50 µM"

----------
test: in vitro; settings: rat, gh3-tre-luc cells, AC50 (uM) modified / 1000, Tox21_110001=Tox21_201753; viability, 1 nM T3 present, 24 h
Parameter: CC50 at 24 h (µM)

>>> reported("CCOC(=O)C(O)(c1ccc(Cl)cc1)c1ccc(Cl)cc1 [Chlorobenzilate]")
58.2

----------
experiment: in vitro; conditions: rat, gh3-tre-luc cells, AC50 (uM) modified / 1000, Tox21_110001=Tox21_201929; viability, 1 nM T3 present, 24 h
Parameter: CC50 at 24 h

>>> reported("CC(C)C#N")
"> 90 µM"

----------
experiment: in vitro; details: rat, gh3-tre-luc cells, AC50 (uM) modified / 1000, Tox21_110001=Tox21_200235; viability, 1 nM T3 present, 24 h
Parameter: CC50 at 24 h

>>> reported("Cl/C=C/CCl")
"> 90 µM"

----------
tested on: GH3-TRE-Luc cell line; conditions: read-out: AC50 (uM) modified / 1000; Tox21_110001=Tox21_302977; viability, 1 nM T3 present, 24 h
Parameter: CC50 (µM)

>>> reported("Cc1ccc(S(=O)(=O)Oc2ccc(N=Nc3ccc(-c4ccc(N=Nc5c(O)ccc6cc(S(=O)(=O)O)cc(S(=O)(=O)O)c56)c(C)c4)cc3C)cc2)cc1")
17.5

----------
Each entry below carries its reported CC50 at 24 h.
assay: in vitro; settings: rat, gh3-tre-luc cells, AC50 (uM) modified / 1000
Counter-ions that a name gives are not always drawn.
Parameter: CC50 at 24 h (µM)

>>> reported("CC(C)N1CCN(c2ccc(OC[C@H]3CO[C@](Cn4cncn4)(c4ccc(Cl)cc4Cl)O3)cc2)CC1 (racemic) [Terconazole]")
5.35
>>> reported("CN1CCN(C(c2ccccc2)c2ccc(Cl)cc2)CC1 (stereo not shown) [Chlorcyclizine hydrochloride]")
4.39

----------
assay: in vitro; conditions: rat, gh3-tre-luc cells, AC50 (uM) modified / 1000, Tox21_110001=Tox21_113045; viability, 1 nM T3 present, 24 h
Parameter: CC50 at 24 h

>>> reported("CNC(C)Cc1ccccc1OC (stereo not shown)")
"> 50 µM"

----------
Below, each entry is listed with its recorded CC50 at 24 h.
assay: in vitro; conditions: rat, gh3-tre-luc cells, AC50 (uM) modified / 1000
Counter-ions that a name gives are not always drawn.
Parameter: CC50 at 24 h

>>> reported("CCCCC[C@H](O)/C=C/[C@@H]1[C@H]2C/C(=C/CCCC(=O)O)O[C@H]2C[C@H]1O [Epoprostenol sodium]")
"> 50 µM"
>>> reported("C1CCc2nnnn2CC1")
"> 50 µM"
>>> reported("CC1(C)C(/C=C(\\Cl)C(F)(F)F)C1C(=O)OC(C#N)c1cccc(Oc2ccccc2)c1 (stereo not drawn)")
"> 90 µM"
>>> reported("C=COCC(C)C")
"> 100 µM"
>>> reported("CCCCOC(=O)C(=O)Nc1cccc(-c2nnn[nH]2)c1")
"> 50 µM"
>>> reported("CCOCCOCCOCCO [2-[2-(2-Ethoxyethoxy)ethoxy]ethanol]")
"> 90 µM"
>>> reported("NC(=O)CI [Iodoacetamide]")
"> 90 µM"
>>> reported("CCN(CC)CC(=O)Nc1c(C)cc(C)cc1C [Trimecaine monohydrochloride]")
"> 50 µM"
>>> reported("Cc1cc(C(C)(C)c2ccc(O)c(C)c2)ccc1O")
"> 90 µM"
